# EC50 (read off the curve) listing for each entry below
Target entity: T1, human CD22 domain1-4-His (human, UniProt P20273 20-425)
T1 construct: also called hCD22 domain1-4-His; not shown: His tag
T1 sequence: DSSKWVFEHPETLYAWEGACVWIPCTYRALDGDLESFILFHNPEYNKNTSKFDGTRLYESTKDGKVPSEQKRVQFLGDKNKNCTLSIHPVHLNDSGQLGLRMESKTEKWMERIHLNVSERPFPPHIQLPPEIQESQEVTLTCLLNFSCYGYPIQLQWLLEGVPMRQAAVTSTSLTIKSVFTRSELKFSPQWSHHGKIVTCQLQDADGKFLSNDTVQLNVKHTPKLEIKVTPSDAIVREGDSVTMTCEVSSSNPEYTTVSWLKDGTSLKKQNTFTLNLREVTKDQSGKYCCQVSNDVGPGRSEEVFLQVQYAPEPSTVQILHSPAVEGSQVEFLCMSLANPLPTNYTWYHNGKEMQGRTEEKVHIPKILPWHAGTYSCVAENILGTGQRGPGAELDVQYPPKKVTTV
Method: ELISA, human CD22 domain1-4-His coated

Binder | EC50 (read off the curve)
F1.280.1 (antibody, human IgG1, kappa, V domains shown, Human-murine chimeric IgG1, kappa) VH: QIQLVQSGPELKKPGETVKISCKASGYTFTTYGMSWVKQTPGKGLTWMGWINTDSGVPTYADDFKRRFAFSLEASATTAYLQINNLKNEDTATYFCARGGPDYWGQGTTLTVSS VL: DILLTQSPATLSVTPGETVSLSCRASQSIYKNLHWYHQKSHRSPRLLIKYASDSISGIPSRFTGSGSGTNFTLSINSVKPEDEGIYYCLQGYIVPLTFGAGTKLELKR | ~0.05 nM
HA22-hIgG1 (antibody, V domains shown) VH: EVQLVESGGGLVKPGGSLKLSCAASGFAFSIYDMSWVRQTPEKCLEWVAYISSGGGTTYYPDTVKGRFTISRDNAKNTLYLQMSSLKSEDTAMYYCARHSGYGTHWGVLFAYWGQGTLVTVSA VL: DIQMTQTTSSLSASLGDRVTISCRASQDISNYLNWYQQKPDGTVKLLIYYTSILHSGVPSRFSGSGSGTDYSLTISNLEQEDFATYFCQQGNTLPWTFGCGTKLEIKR | ~0.06 nM
F2.104.10 (antibody, human IgG1, lambda, V domains shown, Human-murine chimeric IgG1, lambda) VH: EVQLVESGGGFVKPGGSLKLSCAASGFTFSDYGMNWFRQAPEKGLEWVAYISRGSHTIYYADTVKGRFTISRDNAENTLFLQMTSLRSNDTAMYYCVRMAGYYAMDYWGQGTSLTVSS VL: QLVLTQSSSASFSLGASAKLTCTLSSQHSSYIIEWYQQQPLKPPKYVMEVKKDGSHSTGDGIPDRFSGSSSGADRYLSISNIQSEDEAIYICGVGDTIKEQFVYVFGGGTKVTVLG | ~0.04 nM
